target: EBOV GP[change] (Ebola virus), Q05320; details: remark: other sources report otherwise
Overview of recorded EC50 for various binders
quantity kind: EC50

m16G8 (antibody, V domains shown) VH: EVQLQESGPGLVKPGASVKISCKASGYSFTGYYMNWVKQSPEKSLEWIGEINPSTGGTTYNQKFKAKATLTVDKSSSTAYMQLKSLTSEDSAVYYCVRYSHYYGSGSWYFDVWGTGTTVTVSS VL: DIQMTQSPASLSASVGETVTITCRASENIYSNLAWYQQKQGKSPQLLVNAATNLADGVPSRFSGSGSGTQFSLKINSLQPEDFGSYYCQHFYVTPYMFGSGTKLEIKR; 1.23 µg/mL
m21B2 (antibody, V domains shown) VH: EVQLQESGAELVRPGASVTLSCKTSGYTFTDYEMHWVKQTPVHGLEWIGAIDPETGGTAYNQKFKGKATLTADKSSSTAYMELSRLTSEDSAVYYCTGNYATDYWGQGTSVTVSS VL: DIVMSQSPSSLAVSAGEKVTMSCKSSQSLFNSRSRKNYLAWYQLKPGQSPKLLIYWASTRESGVPDRFTGSGSGTDFTLTISSVQAEDLAVYYCKQSNYLWTFGGGTKLEIKR; > 10 µg/mL
m17C6 (antibody, V domains shown) VH: EVQLQESGPGLVQPSQSLSITCTVSGFSLTSYGVHWVRQSPGKGLEWLGVIWSGGSTDYNAAFISRLSISKDNSKSQVFFKMNSLQADDTAIYYCARNWFDYDNYYSMDYWGQGTSVTVSS VL: DIQMTQTTSSLSASLGDRVTISCRASQDISNYLNWYQQKPDGTVKLLIYYTSRLHSGVPSRFSGSGSGTDFSLTISNQEPEDIATYYCQQYSNLPWTFGGGTKLEIKR; 0.03 µg/mL
m8C4 (antibody, V domains shown) VH: EVQLQESGPELKKPGETVKISCKASGYTFTTYGMSWVKQAPGKGLKWMGRINTYSGVPTYADEFKGRFAFSLENSASTAYLQINNLKNEDTATYFCARGDGGHWFANWGQGTLVTVSA VL: DIQMTQSPSSLSASLGGKVTITCKASQDINKNIAWYQHKPGKGPRLLIWYKSALQPGIPSRFSGSGSGRDYSFSISNLEPEDIATYSCLQYDNLPPTFGGGTKLEIKR; 0.21 µg/mL

Source of measurements: patent US20170158753A1
